Value source: patent US6573378B1

Tested on: Herpes simplex type 1 virus, strain SC16
Experiment summary: Virus cytopathic effect (CPE) reduction, Herpes simplex type 1 virus strain SC16 in MRC-5 cells (Method 2)
Type: cell-based
Condition: Human alphaherpesvirus 1, SC16, MRC5, 72 h, 50% reduction of virus CPE, 3 days at 37° C., read-out: PDD50 Herpes simplex type 1 virus SC16 strain in MRC-5 cells
Assay metric: IC50

>>> test_value("CC(=O)OCC(CCn1cnc2c(=O)[nH]c(N)nc21)COC(C)=O")
"> 100 mg/L"
>>> test_value("CCC(=O)Nc1nc2c(ncn2CCC(COC(=O)CC)COC(=O)CC)c(=O)[nH]1")
"> 100 mg/L"
>>> test_value("COc1nc(N)nc2c1ncn2CCC(CO)CO")
"> 100 mg/L"
